Tested on: C. parapsilosis ATCC 22019
Protocol Text: Anti-Fungal (Candida) Activity Assay, broth microtiter MIC
Assay type: cell-based
Recorded Conditions: Lodderomyces parapsilosis, ATCC22019, 48 h, Table 3a; 3 replicates; MIC read at 48 h
Overview of recorded MIC for various compounds

Chemical Structure: CCOC(=O)c1sc2c(c1C)c(=O)n(C(C)(C)C(=O)NC(C)C)c(=O)n2C[C@H](OCCC#N)c1cc(F)ccc1OC
System: C. parapsilosis ATCC 22019
MIC: 0.25 to 1 µg/mL
--
Chemical Structure: CCOC(=O)c1sc2c(c1C)c(=O)n(C(C)(C)C(=O)N1CCCCC1)c(=O)n2C[C@H](OC(C)C)c1ccccc1OC
System: C. parapsilosis ATCC 22019
MIC: > 4.1 µg/mL
--
Chemical Structure: CCOC(=O)c1sc2c(c1C)c(=O)n(C(C)(C)C(N)=O)c(=O)n2C[C@H](OCCC#N)c1cc(F)ccc1OC
System: C. parapsilosis ATCC 22019
MIC: > 4.1 µg/mL
